- METHOD_NOTES: Cytotoxicity assay (MTT) in mock-infected MDBK cells
- Assay type: cell-based
- SETUP_CONDITIONS: cattle (Bos taurus); concentration reducing viability of mock-infected MDBK cells by 50%, MTT method

{"columns": ["COMPOUND", "CC50"],
 "data": [
  ["O=C(Nc1ccc(-c2nc3cc(Cl)c(Cl)cc3[nH]2)cc1)c1ccc(Cl)cc1 [Compound 3e]", "60 µM"],
  ["COc1cc(C(=O)Nc2ccc(-c3nc4ccccc4[nH]3)cc2)cc(OC)c1OC [Compound 1c]", "28.5 µM"],
  ["O=C(Nc1ccc(-c2nc3cc(Cl)ccc3[nH]2)cc1)c1ccc(Cl)cc1 [Compound 2e]", "> 100 µM"],
  ["O=C(Nc1ccc(-c2nc3ccccc3[nH]2)cc1)c1ccc(Cl)cc1 [Compound 1e]", "> 100 µM"],
  ["COc1cc(C(=O)Nc2ccc(-c3nc4cc(Cl)c(Cl)cc4[nH]3)cc2)cc(OC)c1OC [Compound 3c]", "28 µM"],
  ["O=C(Nc1ccc(-c2nc3cc(F)c(F)cc3[nH]2)cc1)c1ccc([N+](=O)[O-])cc1 [Compound 5d]", "> 100 µM"],
  ["COc1cc(C(=O)Nc2ccc(-c3nc4cc(C)ccc4[nH]3)cc2)cc(OC)c1OC [Compound 6c]", "> 100 µM"],
  ["O=C(Nc1ccc(-c2nc3ccccc3[nH]2)cc1)c1ccc([N+](=O)[O-])cc1 [Compound 1d]", "> 100 µM"],
  ["O=C(Nc1ccc(-c2nc3cc(F)ccc3[nH]2)cc1)c1ccc([N+](=O)[O-])cc1 [Compound 4d]", "> 100 µM"],
  ["NC(=O)c1ncn([C@@H]2O[C@H](CO)[C@@H](O)[C@H]2O)n1 [Ribavirin, ribavirin, reference compound]", "> 100 µM"],
  ["COc1cc(C(=O)Nc2ccc(-c3nc4cc(F)c(F)cc4[nH]3)cc2)cc(OC)c1OC [Compound 5c]", "> 100 µM"]
]}
